From: the supplement of paper PMC3334620

Biological target: Yer184c (UniProt P39961)
Sequence: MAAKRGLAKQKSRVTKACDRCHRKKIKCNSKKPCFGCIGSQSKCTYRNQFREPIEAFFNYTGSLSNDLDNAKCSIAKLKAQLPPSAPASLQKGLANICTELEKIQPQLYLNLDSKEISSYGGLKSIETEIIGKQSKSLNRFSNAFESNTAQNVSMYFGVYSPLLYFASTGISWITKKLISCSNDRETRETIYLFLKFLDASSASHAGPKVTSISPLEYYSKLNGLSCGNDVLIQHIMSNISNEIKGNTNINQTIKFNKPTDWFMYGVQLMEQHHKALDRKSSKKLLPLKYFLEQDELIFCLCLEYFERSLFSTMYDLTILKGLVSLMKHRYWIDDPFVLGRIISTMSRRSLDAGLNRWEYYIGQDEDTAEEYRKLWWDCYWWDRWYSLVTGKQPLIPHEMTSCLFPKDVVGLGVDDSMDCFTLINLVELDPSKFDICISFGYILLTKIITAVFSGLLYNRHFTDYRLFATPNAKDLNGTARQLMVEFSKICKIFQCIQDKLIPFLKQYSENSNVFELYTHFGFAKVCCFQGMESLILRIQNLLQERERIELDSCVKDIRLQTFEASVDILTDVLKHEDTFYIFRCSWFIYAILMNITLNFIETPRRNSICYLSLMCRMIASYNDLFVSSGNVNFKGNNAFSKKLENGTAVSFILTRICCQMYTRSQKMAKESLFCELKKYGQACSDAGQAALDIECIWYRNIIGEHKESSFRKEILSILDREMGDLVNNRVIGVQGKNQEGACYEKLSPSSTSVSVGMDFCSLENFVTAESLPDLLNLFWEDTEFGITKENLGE
Experiment: PBM E-score (8-mer binding enrichment) (E-score (-0.5 to 0.5)); higher = stronger / more preferred TF binding
Conditions: protein concentration: 100 nM; construct: GST-full length
Whole data set: some 33,000 sequences, median “E-score (-0.5 to 0.5)” near -0.016, cut for the highest 2% near 0.3. What follows is part of a selection rich in the highest values, with near analogues and random picks from the rest.
testReadout: PBM E-score
Answer as a number with no unit attached.

Consider the worked cases shown below.
| itemSequence | studyTarget | testReadout | readoutNumber |
| --- | --- | --- | --- |
| CCGGCAAC | Yer184c (UniProt P39961) | PBM E-score | 0.293 |
| AGCTCGGA | Yer184c (UniProt P39961) | PBM E-score | 0.159 |
| ATCTCGGA | Yer184c (UniProt P39961) | PBM E-score | 0.31 |
| AGACCTAA | Yer184c (UniProt P39961) | PBM E-score | -0.106 |
| ATCTCGGC | Yer184c (UniProt P39961) | PBM E-score | 0.37 |

Lab note: next sequence to report on.
Input line: Request the reported PBM E-score associated with ACCAGCTC
Output line: -0.141

====

Target: Yer184c (UniProt P39961)
Sequence: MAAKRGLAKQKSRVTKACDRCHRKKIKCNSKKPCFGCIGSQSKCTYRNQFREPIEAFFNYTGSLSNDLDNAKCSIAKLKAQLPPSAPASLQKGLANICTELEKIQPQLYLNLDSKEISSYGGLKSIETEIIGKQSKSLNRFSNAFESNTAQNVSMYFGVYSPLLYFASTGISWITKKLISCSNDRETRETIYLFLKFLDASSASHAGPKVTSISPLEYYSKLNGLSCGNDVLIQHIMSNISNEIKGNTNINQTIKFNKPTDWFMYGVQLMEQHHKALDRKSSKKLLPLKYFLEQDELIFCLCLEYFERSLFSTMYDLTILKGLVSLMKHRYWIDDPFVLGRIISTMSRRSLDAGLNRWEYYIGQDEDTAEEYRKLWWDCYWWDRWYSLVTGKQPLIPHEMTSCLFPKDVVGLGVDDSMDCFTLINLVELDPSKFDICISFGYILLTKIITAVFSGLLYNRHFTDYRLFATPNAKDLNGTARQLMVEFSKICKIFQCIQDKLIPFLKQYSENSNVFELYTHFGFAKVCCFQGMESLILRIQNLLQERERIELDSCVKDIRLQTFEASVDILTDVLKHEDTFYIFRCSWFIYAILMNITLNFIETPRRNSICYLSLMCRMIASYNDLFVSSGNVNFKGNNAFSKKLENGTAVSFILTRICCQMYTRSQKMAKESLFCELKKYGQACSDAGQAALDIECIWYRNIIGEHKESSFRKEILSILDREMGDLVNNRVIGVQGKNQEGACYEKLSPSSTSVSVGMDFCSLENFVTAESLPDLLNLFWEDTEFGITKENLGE
Test: PBM E-score (8-mer binding enrichment) (E-score (-0.5 to 0.5)); higher = stronger / more preferred TF binding
Details: protein concentration: 100 nM; construct: GST-full length
In all, about 33,000 sequences were measured (“E-score (-0.5 to 0.5)”: median about -0.016, highest 2% from about 0.3 on). The entries come from a sample that favours the highest values as a whole.
Below, each entry is listed with its recorded PBM E-score.
Please give the numeric answer without any surrounding text.

Input line: # PBM E-score lookup, item GTCATTCA
Output line: 0.0449

Input line: Then TCCGGAGA ?
Output line: 0.397

Input line: Next sequence up: ACACCGGA
Output line: 0.246

Input line: Check ATTGAGTA too.
Output line: 0.191

Input line: // query: CGCGGGGA
Output line: 0.125

Input line: Another: CGCGGGAA
Output line: 0.311

Input line: How about GGCGGAAA ?
Output line: 0.108

Input line: Also GGGAAATA , if possible.
Output line: 0.0562
